Where a name gives a salt, the structure may show the parent alone.
reported.metric: melting point

{"compound": "CCN(CC)CC(=O)Nc1cccc(-c2cc(-c3ccc(F)cc3O)nc(NC(=O)c3ccco3)c2C#N)c1.Cl", "reading": "262 to 263 °C"}
{"compound": "N#Cc1c(-c2cccc(C(=O)N3CCOCC3)c2)cc(-c2ccccc2O)nc1NC(=O)c1cccs1", "reading": "253 to 254 °C"}
{"compound": "NCCC(=O)Nc1cccc(-c2cc(NC(=O)c3cccs3)nc(-c3ccccc3O)c2)c1 (as salt: hydrochloride) [Example 27, dihydrochloride]", "reading": "214 to 220 °C"}
{"compound": "Cl.N#Cc1c(-c2cccc(NC(=O)CN3CCCC3)c2)cc(-c2ccc(F)cc2O)nc1NC(=O)c1ccco1", "reading": "203 to 205 °C"}
{"compound": "CC(C)C(N)CC(=O)Nc1cccc(-c2cc(-c3ccc(F)cc3O)nc(NC(=O)c3ccco3)c2C#N)c1.Cl (stereo not shown)", "reading": "214 to 217 °C"}
{"compound": "Cl.N#Cc1c(-c2cccc(NC(=O)[C@H]3CCCN3)c2)cc(-c2ccc(F)cc2O)nc1NC(=O)c1ccco1", "reading": "216 to 220 °C"}
{"compound": "Cl.N#Cc1c(-c2cccc(NC(=O)[C@H]3CCCC[C@H]3N)c2)cc(-c2ccc(F)cc2O)nc1NC(=O)c1ccco1", "reading": "237 to 239 °C"}

----------
Overview of reported pIC50 across a group of compounds:
- measurement.target: human metastin receptor hOT7T175 (Homo sapiens, UniProt Q969F8, L364H)
- Construct: encoding the entire length of human metastin receptor hOT7T175; expressed in transfected cells; host or cells: CHO/dhFr- cells (ATCC #CRL-9096) stably transfected with pAKKO-hOT7T175; clone h175-16 was used as whole cells for FLIPR
- Sequence (Q969F8 whole entry L364H): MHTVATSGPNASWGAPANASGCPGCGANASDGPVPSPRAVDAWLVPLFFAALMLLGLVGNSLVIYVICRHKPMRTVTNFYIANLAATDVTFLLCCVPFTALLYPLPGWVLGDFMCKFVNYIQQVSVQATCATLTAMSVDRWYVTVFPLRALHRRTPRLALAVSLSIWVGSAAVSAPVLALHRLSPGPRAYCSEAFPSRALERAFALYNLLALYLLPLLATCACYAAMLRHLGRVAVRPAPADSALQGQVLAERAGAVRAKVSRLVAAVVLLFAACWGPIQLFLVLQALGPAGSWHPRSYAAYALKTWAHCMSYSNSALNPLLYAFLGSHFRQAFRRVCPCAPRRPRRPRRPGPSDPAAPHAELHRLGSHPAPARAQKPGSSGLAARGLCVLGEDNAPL
- method.summary: binding inhibiting activity: 125I-metastin (40-54) binding to cell membrane fraction of h175 KB34 cells
- conditions.used: room temperature 60 minutes, read-out: binding inhibiting activity, represented by the IC50 value
pIC50: −log10 of the molar value. Structures can show the parent of a compound that is named as a salt.

{"compound": "N#Cc1c(-c2cccc(NC(=O)CCN)c2)cc(-c2cc(Cl)ccc2O)nc1NC(=O)c1cccs1 [Example 46, trifluoroacetate]", "pIC50": "≥ 5.00"}
{"compound": "Cl.N#Cc1c(-c2cccc(NC(=O)[C@H]3CCCC[C@H]3N)c2)cc(-c2ccc(F)cc2O)nc1NC(=O)c1ccco1 [Example 283, hydrochloride]", "pIC50": "≥ 5.00"}
{"compound": "Cl.N#Cc1c(-c2cccc(NC(=O)[C@H]3CCCN3)c2)cc(-c2ccc(F)cc2O)nc1NC(=O)c1nccs1 [Example 292, hydrochloride]", "pIC50": "≥ 5.00"}

----------
# melting point listing for each entry below

{"molecule": "Cl.N#Cc1c(-c2cccc(NC(=O)CC3CCCCN3)c2)cc(-c2ccc(F)cc2O)nc1NC(=O)c1ccco1 (stereo not shown)", "melting point": "277 to 278 °C (dec.)"}
{"molecule": "COc1ccc(O)c(-c2cc(-c3cccc(NC(=O)CCN)c3)c(C#N)c(NC(=O)c3cccs3)n2)c1.Cl", "melting point": "197 to 201 °C"}
{"molecule": "CN(C)[C@H]1CCCC[C@H]1C(=O)Nc1cccc(-c2cc(-c3ccc(F)cc3O)nc(NC(=O)c3ccco3)c2C#N)c1.Cl", "melting point": "217 to 218 °C"}
{"molecule": "Cl.N#Cc1c(-c2cccc(NC(=O)CCN)c2)cc(-c2ccccc2O)nc1NC(=O)c1cccs1", "melting point": "223 to 228 °C"}
{"molecule": "N#Cc1c(-c2cccc(N)c2)cc(-c2ccccc2O)nc1NC(=O)C1CCCCC1", "melting point": "236 to 238 °C"}
{"molecule": "Cl.N#Cc1c(-c2cccc(C(=O)NC3CCCNC3)c2)cc(-c2ccccc2O)nc1NC(=O)c1cccs1 (stereo not shown)", "melting point": "232 to 233 °C"}
{"molecule": "Cl.N#Cc1c(-c2cccc(NC(=O)CCN)c2)cc(-c2ccc(Cl)cc2O)nc1NC(=O)c1ccco1", "melting point": "206 to 212 °C"}

----------
- measurement.target: human metastin receptor hOT7T175 (Homo sapiens, UniProt Q969F8, L364H)
- Construct: encoding the entire length of human metastin receptor hOT7T175; expressed in transfected cells; host or cells: CHO/dhFr- cells (ATCC #CRL-9096) stably transfected with pAKKO-hOT7T175; clone h175-16 was used as whole cells for FLIPR
- method.summary: binding inhibiting activity: 125I-metastin (40-54) binding to cell membrane fraction of h175 KB34 cells
- conditions.used: room temperature 60 minutes, read-out: binding inhibiting activity, represented by the IC50 value

{"molecule": "Cl.N#Cc1c(-c2cccc(NC(=O)[C@@H]3CCCC[C@@H]3N)c2)cc(-c2ccc(F)cc2O)nc1NC(=O)c1ccco1 (racemic) [Example 267, hydrochloride]", "IC50": "≤ 10 µM"}
{"molecule": "CN(C)Cc1cccc(-c2cc(-c3ccccc3O)nc(NC(=O)c3cccs3)c2C#N)c1 [Example 2]", "IC50": "≤ 10 µM"}
{"molecule": "Cl.N#Cc1c(-c2cccc(C(=O)NC3CCNC3)c2)cc(-c2ccc(F)cc2O)nc1NC(=O)c1ccco1 (stereo not drawn) [Example 76, hydrochloride]", "IC50": "≤ 10 µM"}

----------
Counter-ions that a name gives are not always drawn.
Reported melting point values follow for various compounds
reported.metric: melting point

{"compound": "Cl.N#Cc1c(-c2cccc(C(=O)NC3CCNC3)c2)cc(-c2ccc(F)cc2O)nc1NC(=O)c1ccco1 (stereo not shown) [Example 76]", "reading": "225 to 226 °C"}
{"compound": "N#Cc1c(-c2ccc(N)cc2)cc(-c2ccccc2O)nc1NC(=O)c1cccs1 [Example 48]", "reading": "292 to 293 °C"}
{"compound": "CCOc1ccccc1C(=O)Nc1nc(-c2ccc(Cl)cc2O)cc(-c2cccc(NC(=O)CCN)c2)c1C#N.Cl", "reading": "240 to 244 °C"}
{"compound": "CCNC(CC)CC(=O)Nc1cccc(-c2cc(-c3ccc(F)cc3O)nc(NC(=O)c3ccco3)c2C#N)c1.Cl (stereo not shown) [Example 308]", "reading": "233 to 238 °C"}
{"compound": "Cl.N#Cc1c(-c2cccc(C(=O)NCCN)c2)cc(-c2ccc(Cl)cc2O)nc1NC(=O)c1ccco1 [Example 86]", "reading": "252 to 255 °C"}
{"compound": "CCN(C)CCC(=O)Nc1cccc(-c2cc(-c3ccc(F)cc3O)nc(NC(=O)c3ccco3)c2C#N)c1.Cl [Example 316]", "reading": "223 to 224 °C"}
{"compound": "CC(N)CC(=O)Nc1cccc(-c2cc(-c3ccc(Cl)cc3O)nc(NC(=O)c3ccco3)c2C#N)c1.Cl (stereo not shown) [Example 238]", "reading": "206 to 214 °C"}
{"compound": "Cl.N#Cc1c(-c2ccc(F)c(C(=O)NCCN)c2)cc(-c2ccc(F)cc2O)nc1NC(=O)c1ccco1 [Example 281]", "reading": "255 to 264 °C"}
{"compound": "Cl.N#Cc1c(-c2cccc(C(=O)NC3CCNC3)c2)cc(-c2ccc(F)cc2O)nc1NC(=O)c1cccs1 (stereo not shown) [Example 79]", "reading": "240 to 241 °C"}
{"compound": "CCNC(C)CC(=O)Nc1cccc(-c2cc(-c3ccc(F)cc3O)nc(NC(=O)c3ccco3)c2C#N)c1.Cl (stereo not shown) [Example 320]", "reading": "249 to 255 °C"}
{"compound": "Cl.N#Cc1c(-c2cccc(NC(=O)C3CCNC3)c2)cc(-c2ccc(Cl)cc2O)nc1NC(=O)c1ccco1 (stereo not shown) [Example 241]", "reading": "226 to 235 °C"}
{"compound": "N#Cc1c(-c2cccc(NC(=O)CCN)c2)cc(-c2cc(Cl)ccc2O)nc1NC(=O)c1ccccc1 (as salt: trifluoroacetate) [Example 47]", "reading": "205 to 210 °C"}
{"compound": "Cl.N#Cc1c(-c2ccc(F)c(N)c2)cc(-c2ccc(F)cc2O)nc1NC(=O)c1ccco1", "reading": "284 to 285 °C"}
{"compound": "COc1ccccc1C(=O)Nc1nc(-c2ccc(F)cc2O)cc(-c2cccc(C(=O)NCCCn3ccnc3)c2)c1C#N.Cl [Example 245]", "reading": "234 to 235 °C"}
{"compound": "Cl.N#Cc1c(-c2cccc(NC(=O)[C@@H]3CCCC[C@@H]3N)c2)cc(-c2ccc(F)cc2O)nc1NC(=O)c1ccco1 [Example 284]", "reading": "220 to 223 °C"}
{"compound": "CC(C)(CN)CNC(=O)c1cccc(-c2cc(-c3ccc(F)cc3O)nc(NC(=O)c3cccs3)c2C#N)c1.Cl [Example 80]", "reading": "265 to 268 °C"}
{"compound": "Cl.N#Cc1c(-c2cccc(NC(=O)[C@H](N)Cc3ccccc3)c2)cc(-c2ccc(F)cc2O)nc1NC(=O)c1ccco1 [Example 263]", "reading": "186 to 188 °C"}
{"compound": "Cl.N#Cc1c(-c2cccc(C(=O)NC3CCNCC3)c2)cc(-c2ccccc2O)nc1NC(=O)c1cccs1 [Example 7]", "reading": "254 to 256 °C"}
{"compound": "COc1ccccc1C(=O)Nc1nc(-c2ccc(F)cc2O)cc(-c2cccc(C(=O)NCC(C)(C)CN)c2)c1C#N.Cl [Example 246]", "reading": "244 to 246 °C"}
{"compound": "Cl.N#Cc1c(-c2cccc(NC(=O)CCCn3ccnc3)c2)cc(-c2ccc(Cl)cc2O)nc1NC(=O)c1ccco1 [Example 242]", "reading": "166 to 170 °C"}
{"compound": "COc1cccc(O)c1-c1cc(-c2cccc(NC(=O)CCN)c2)c(C#N)c(NC(=O)c2ccccc2)n1 (as salt: trifluoroacetate) [Example 52]", "reading": "160 to 167 °C"}
{"compound": "CN(C)CC(=O)Nc1cccc(-c2cc(-c3ccc(F)cc3O)nc(NC(=O)c3ccco3)c2CN(C)C)c1 (as salt: hydrochloride) [Example 300, dihydrochloride]", "reading": "186 to 194 °C"}
{"compound": "CCN1CCC[C@H]1CC(=O)Nc1cccc(-c2cc(-c3ccc(F)cc3O)nc(NC(=O)c3ccco3)c2C#N)c1.Cl [Example 336]", "reading": "182 to 187 °C"}
{"compound": "Cl.N#Cc1c(-c2cccc(C(=O)NCCN)c2)cc(-c2ccc(Cl)cc2O)nc1NC(=O)c1nccs1 [Example 249]", "reading": "242 to 244 °C"}
{"compound": "Cl.N#Cc1c(-c2cccc(NC(=O)CN3CCCCC3)c2)cc(-c2ccc(F)cc2O)nc1NC(=O)c1ccco1", "reading": "249 to 251 °C"}
{"compound": "Cl.N#Cc1c(-c2cccc(C(=O)N[C@@H]3CCCC[C@H]3N)c2)cc(-c2ccc(F)cc2O)nc1NC(=O)c1ccco1 (racemic) [Example 289]", "reading": "285 to 288 °C"}
{"compound": "Cl.N#Cc1c(-c2cccc(C(=O)NCCCn3ccnc3)c2)cc(-c2ccc(F)cc2O)nc1NC(=O)c1ccco1 [Example 67]", "reading": "173 to 174 °C"}
{"compound": "N#Cc1c(-c2cccc(N)c2)cc(-c2ccccc2O)nc1NC(=O)c1ccsc1 [Example 33]", "reading": "257 to 260 °C"}

Data provenance is patent US20090156646A1.
